Data provenance is patent US20260258115A1.

Biological target: RSV prefusion F (preF), subtype B (respiratory syncytial virus, subtype B)
Experiment: BLI, IgG
Here the recorded Kd is given for each entry.
Output spec: scalar in nM, unitless text.

GET /values?readout=Kd&item= ADI-14407 (antibody, V domains shown, also called Ab 73) VH: QVQLVQSGGGVVQPGRSLRLSCAASGFTFSSYGMHWVRQAPGKGLEWVAVIWFDGNNKEYADSVKGRFAISRDNSKNTLYLQMNSLRAEDTAVYYCARDLIPVTIFGVVNPYSYYGMDVWGQGTTVTVSS VL: EIVMTQSPSSLSASVGDRVTITCRASQSISTYLNWYQQKPGTAPKLLIYAASSLESGVPSRLSGSGSGTEFILTISSLQREDFATYYCQQSYSTPPTFGQGTKVEIK 11.4

GET /values?readout=Kd&item= ADI-21015 (antibody, V domains shown) VH: QVQLVQSGAEVKKPGASVRVSCKVPGNTLSDLSMHWVRHTPGEGLEWMGSFDPEYGETIPAQRFQGRVTMTEDTSTDTAYMELTSLRFEDTAVYYCAAPHASGALQHWGQGTLVTVSS VL: DIVMTQSPSSLSASVGDRVTITCRASQIISAYLNWYQQKAGKAPKLLIYAASSLQSGVPSRFSGSGSGTDFTLTISSLQPEDFATYYCQQTYITPFTFGQGTKLEIK 32.4
